These entries and their values trace back to PubChem BioAssay (NCATS).

- Test system: CAOV3
- experiment.notes: Primary qHTS to identify gynecologic anti-cancer compounds using libraries of approved drugs and bioactive compounds (AID 1345084); note: % is set by controls: 0 for no effect and ±100 for the full control effect; nearly all actives have a fitted effect of over 55% in size
- test.context: Gynecologic cancer cell panel viability, ATPlite luminescence, 48 h; series mostly up to 57.5 µM
Results filed as inconclusive are left out. Active and inactive are the calls of the source. Calls come from the whole dose curve; as a rule, active = well fitted cell-killing curve with a large enough effect; inconclusive = small, poorly fitted or top-dose-only effect, or effect the other way; inactive = flat fitted curve, though single readings scatter.
parameter.measured: activity change, negative = cytotoxicity

[[record]]
compound = "CC(=O)O[C@@H]1[C@H](O[C@@H]2O[C@H](CO)[C@@H](O)[C@H](O)[C@H]2O)[C@@H](O[C@@H]2O[C@@H](C)[C@H](O)[C@@H](O[C@@H]3O[C@H](CO)[C@@H](O)[C@H](O)[C@H]3O)[C@H]2O)[C@H](OC(=O)[C@]23CCC(C)(C)C[C@H]2C2=CCC4[C@@]5(C)C[C@H](O)[C@H](O[C@@H]6O[C@H](C(=O)O)[C@@H](O)[C@H](O)[C@H]6O)[C@@](C)(C(=O)O)C5CC[C@@]4(C)[C@]2(C)CC3)O[C@@H]1C (stereo partly drawn)"
study_target = "CAOV3"
result = "-7.98% [at 6.55 µM] (inactive)"

[[record]]
compound = "CC1(C)CCC[C@]2(C)C1CC=C(CO)[C@H]2CC/C(=C/CO)CO (stereo partly drawn)"
study_target = "CAOV3"
result = "inactive"

[[record]]
compound = "CC1(C)CC[C@]2(C(=O)O)CC[C@]3(C)C(=CCC4[C@@]5(C)CC[C@H](O[C@H]6O[C@H](C(=O)O)[C@@H](O)[C@H](O[C@@H]7O[C@H](CO)[C@H](O)[C@H](O)[C@H]7O)[C@H]6O)C(C)(C)C5CC[C@]43C)[C@@H]2C1 (stereo partly drawn)"
study_target = "CAOV3"
result = "23.8% [at 11.6 µM] (inactive)"

[[record]]
compound = "COC(=O)[C@H](O)[C@H]1C(C)(C)[C@H](OC(C)=O)[C@@]2(O)C(=O)[C@]1(C)C1CC[C@]3(C)C(CC(=O)O[C@H]3c3ccoc3)[C@]13O[C@@H]32 (stereo partly drawn)"
study_target = "CAOV3"
result = "inactive"

[[record]]
compound = "COC(=O)C(CC1(OC(=O)C(C)C)c2ccccc2N2C(=O)C(C)(C)N(O)C21)n1cnc2ccccc2c1=O (stereo not drawn)"
study_target = "CAOV3"
result = "inactive"

[[record]]
compound = "CC1=C2C3OC(=O)C(C)C3(O)CCC2(C)CCC1 (stereo not drawn)"
study_target = "CAOV3"
result = "inactive"


### Prompt Kindly indicate its recorded activity change, negative = cytotoxicity. Item: O=C(C[C@@H]1C(C(=O)O)=CO[C@@H](O[C@@H]2O[C@H](CO)[C@@H](O)[C@H](O)[C@H]2O)/C1=C\CO)OCCc1ccc(O)c(O)c1
### Response inactive

### Prompt Kindly indicate its recorded activity change, negative = cytotoxicity. Item: COC(=O)[C@@H](NC(=O)[C@H](CC(C)C)NC(=O)N(Cc1ccccc1)C[C@@H](O)[C@H](Cc1ccccc1)NC(=O)OC(C)(C)C)C(C)C
### Response -0.568% [at 11.6 µM] (inactive)

### Prompt Kindly indicate its recorded activity change, negative = cytotoxicity. Item: C[C@@]1(C(=O)O)CCC[C@@]2(C)C3=CC[C@H]4C[C@@]3(CC[C@H]12)CC4(O)CO (stereo partly drawn)
### Response inactive

====

- study.target: Calcium and integrin-binding protein 1 (Homo sapiens) (UniProt Q99828)
- Sequence (Q99828 whole entry, looked up): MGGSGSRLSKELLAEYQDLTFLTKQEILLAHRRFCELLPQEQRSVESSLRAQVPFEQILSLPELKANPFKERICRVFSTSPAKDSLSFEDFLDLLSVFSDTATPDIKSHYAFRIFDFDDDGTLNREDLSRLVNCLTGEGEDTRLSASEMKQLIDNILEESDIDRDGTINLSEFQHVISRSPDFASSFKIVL
- experiment.notes: Primary qHTS for Identification of Calcium Integrin Binding Protein 1 (CIB1) Competitor (AID 1508620);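 note: GST tagged CIB1 binding a fluorescein labelled alphaIIb integrin peptide tracer; top concentration of the series differs between compounds; % is set by controls: 0 for no effect and ±100 for the full control effect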
- test.context: CIB1-GST / FITC-alphaIIb peptide fluorescence polarization; series mostly up to 57.7 µM
Records with an inconclusive call do not appear. Calls of active or inactive are those of the source. Calls come from the whole dose curve; as a rule, active = well fitted inhibition curve with a large enough effect; inconclusive = small, poorly fitted or top-dose-only effect; inactive = flat fitted curve, though single readings scatter.
parameter.measured: activity change, negative = inhibition

These recorded examples may help you get a feel for the data.
[[record]]
compound = "CC1CC2OCC3(O)CCC(O)C(C14CC(c1ccoc1)OC4=O)C23CO (stereo unspecified)"
study_target = "Calcium and integrin-binding protein 1 (Homo sapiens) (UniProt Q99828)"
parameter_measured = "activity change, negative = inhibition"
result = "inactive"

[[record]]
compound = "C=C1CC[C@@]2(OC1)O[C@H]1CC3C4CC=C5C[C@@H](O[C@@H]6O[C@@H](C)[C@H](O)[C@@H](O)[C@H]6O)C[C@@H](O[C@@H]6O[C@H](C)[C@H](O)[C@H](O)[C@H]6O[C@@H]6O[C@@H](C)[C@H](O)[C@@H](O)[C@H]6O)[C@]5(C)C4CC[C@]3(C)[C@H]1[C@@H]2C (stereo partly specified)"
study_target = "Calcium and integrin-binding protein 1 (Homo sapiens) (UniProt Q99828)"
parameter_measured = "activity change, negative = inhibition"
result = "inactive"

[[record]]
compound = "O=C(O[C@H]1[C@H](Oc2ccc(O)cc2CO)O[C@H](CO)[C@@H](O)[C@@H]1O)c1ccccc1"
study_target = "Calcium and integrin-binding protein 1 (Homo sapiens) (UniProt Q99828)"
parameter_measured = "activity change, negative = inhibition"
result = "inactive"

[[record]]
compound = "C=C1CC[C@@H]2C(C)(C)CCC[C@@]2(C)[C@@H]1CC/C(=C/C(=O)OC)COC(C)=O"
study_target = "Calcium and integrin-binding protein 1 (Homo sapiens) (UniProt Q99828)"
parameter_measured = "activity change, negative = inhibition"
result = "inactive"

[[record]]
compound = "OC[C@H]1O[C@@H](OCc2ccccc2)[C@H](O[C@@H]2OC[C@@H](O)[C@H](O)[C@H]2O)[C@@H](O)[C@@H]1O"
study_target = "Calcium and integrin-binding protein 1 (Homo sapiens) (UniProt Q99828)"
parameter_measured = "activity change, negative = inhibition"
result = "inactive"


### Prompt Kindly indicate its recorded activity change, negative = inhibition. Item: C=C1CCC2C(C)(C)CCC[C@]2(C)[C@H]1CC/C(C)=C/C(=O)O (stereo partly specified)
### Response inactive

### Prompt Kindly indicate its recorded activity change, negative = inhibition. Item: CC(O)C(O)/C=C/C=C/C(=O)O[C@@H]1C=C(C(=O)O)[C@](O)(CO)[C@@]2(C)CCCC(C)(C)[C@H]12 (stereo partly specified)
### Response inactive

### Prompt Kindly indicate its recorded activity change, negative = inhibition. Item: C[C@@H]1C[C@@H](O)[C@@]23CO[C@]2(CO)C[C@@H](O)CC3[C@@]12CC(c1ccoc1)OC2=O (stereo partly specified)
### Response inactive

### Prompt Kindly indicate its recorded activity change, negative = inhibition. Item: C=C(C(=O)O)[C@H]1C[C@]2(C)C(=O)CC[C@]23O[C@H]1C[C@@H]3C
### Response inactive

### Prompt Kindly indicate its recorded activity change, negative = inhibition. Item: CCC(C)C(=O)OC[C@H]1O[C@H](O[C@H]2O[C@H](CO)[C@@H](O)[C@H](O)[C@H]2O)[C@H](O)[C@@H](O)[C@@H]1O (stereo partly specified)
### Response inactive

### Prompt Kindly indicate its recorded activity change, negative = inhibition. Item: CC1CC(=O)C2=C(O1)OC1(C)CCC3C(C)(C)C4OC4C(=O)C3(C)C1C2 (stereo unspecified)
### Response inactive

====

Documented max response across a set of compounds
- System: HEK293
- experiment.notes: Cytotoxic Profiling of Annotated Libraries Using Quantitative High-Throughput Screening (AID 1296008); note: % is set by controls: 0 for no effect and ±100 for the full control effect; nearly all actives have a fitted effect of over 60% in size
- test.context: Five cell lines viability, CellTiter-Glo ATP luminescence, 48-72 h; active compounds read low
Results filed as inconclusive are left out.
Could you give me the number in %? Just the number is fine.

[[record]]
compound = "CC(=O)Nc1cccc2c1c(Sc1ccc(Cl)cc1)c(C)n2CC(=O)O"
result = 1.56

[[record]]
compound = "C/C=C1\\[C@H](O[C@@H]2O[C@H](CO)[C@@H](O)[C@H](O)[C@H]2O)OC=C(C(=O)OCCc2ccc(O)cc2)[C@H]1CC(=O)OCCc1ccc(O)cc1"
result = -2.9

[[record]]
compound = "CC1=C2CC(C)(C)CC2C(O)C2=C(C1)C(=O)OC2O (centres undefined)"
result = 4.01

[[record]]
compound = "COc1ccc(/C=C/C(=O)O[C@@H]2[C@@H](O[C@@H]3O[C@H](CO)[C@@H](O)[C@H](O)[C@H]3O)[C@@H](O)[C@H](O[C@H]3C4C=CO[C@@H](O[C@@H]5O[C@H](CO)[C@@H](O)[C@H](O)[C@H]5O)C4[C@@]4(CO)O[C@@H]34)O[C@H]2C)cc1 (some centres undefined)"
result = -3.69

[[record]]
compound = "C/C(=C\\CCC(C)C1CC(O)C2(C)C3CCC4C(C)(C)C(OC5OCC(O)C(O)C5O)CCC45CC35CC(O)C12C)C(=O)O (centres undefined)"
result = 0.956

[[record]]
compound = "O=C(CC1CC(c2ccc(F)cc2F)=NO1)N1CCOCC1 (centres undefined)"
result = 4.11

[[record]]
compound = "C=C1CC[C@@]2(OC1)O[C@H]1CC3C4CC=C5C[C@@H](O[C@@H]6O[C@@H](C)[C@H](O)[C@@H](O)[C@H]6O)C[C@@H](O[C@@H]6O[C@H](C)[C@H](O)[C@H](O)[C@H]6O[C@@H]6O[C@@H](C)[C@H](O)[C@@H](O)[C@H]6O)[C@]5(C)C4CC[C@]3(C)[C@H]1[C@@H]2C (some centres undefined)"
result = 1.18

[[record]]
compound = "O=C(OCC(O)CO[C@@H]1O[C@H](C(=O)O)[C@@H](O)[C@H](O)[C@H]1O)c1ccccc1 (some centres undefined)"
result = -2.05

[[record]]
compound = "CC1=CC(=O)C(=C(C)C)CC2C(C)(O)CCC12O (centres undefined)"
result = -0.243

[[record]]
compound = "CC1(C)CC[C@]2(C(=O)O[C@@H]3O[C@H](CO)[C@@H](O)[C@H](O)[C@H]3O)CC[C@]3(C)C(=CCC4[C@@]5(C)C[C@@H](O)[C@H](O)[C@@](C)(CO)C5[C@H](O)C[C@]43C)C2C1 (some centres undefined)"
result = -14.5


### Prompt Kindly indicate its recorded max response. Item: O=C(O)c1cc(O[C@@H]2O[C@H](CO)[C@@H](O)[C@H](O)[C@H]2O)ccc1O
### Response -8.21

### Prompt Kindly indicate its recorded max response. Item: Cc1cc(O[C@@H]2O[C@H](COC(=O)CC(=O)O)[C@@H](O)[C@H](O)[C@H]2O)c(C(C)C)cc1O
### Response -1.41

### Prompt Kindly indicate its recorded max response. Item: C/C(=C\CC/C(C)=C/CC[C@]1(C)CCc2cc(O)cc(C)c2O1)CC/C=C(\C)C(=O)O
### Response -1.65

### Prompt Kindly indicate its recorded max response. Item: CC1(C)CCC[C@@]2(C)[C@H]1[C@H](O)C=C(CO)[C@]2(O)CO
### Response -0.502
